Attribution: PubChem BioAssay AID504332

Assay system: Histone-lysine N-methyltransferase EHMT2 (Homo sapiens) (UniProt Q96KQ7)
Sequence (Q96KQ7 913-1193 limits assumed): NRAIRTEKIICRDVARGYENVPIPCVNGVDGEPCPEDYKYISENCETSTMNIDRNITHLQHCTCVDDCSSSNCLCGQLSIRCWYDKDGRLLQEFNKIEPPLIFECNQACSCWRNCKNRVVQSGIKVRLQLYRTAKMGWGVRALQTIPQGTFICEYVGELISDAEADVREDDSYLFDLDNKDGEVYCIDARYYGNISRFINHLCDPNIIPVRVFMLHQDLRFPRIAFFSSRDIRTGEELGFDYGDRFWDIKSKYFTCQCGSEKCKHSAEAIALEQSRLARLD
Assay overview: qHTS Assay for Inhibitors of Histone Lysine Methyltransferase G9a; further: nearly all actives have a fitted effect of over 75% in size
Conditions: G9a H3K9 monomethylation, AlphaScreen, 2 h; series mostly up to 59 µM
The whole screen tested about 350,000 compounds, of which about 31,000 (8.9%) were called active. Roughly 15% stayed inconclusive and do not appear here. The call rests on the fitted dose curve; in most records, active means well fitted inhibition curve with a large enough effect; inconclusive means small, poorly fitted or top-dose-only effect; inactive means no such curve, though single readings can be large or run the other way. This is one part of a sample in which actives are shown more often than they occur.
The reply should name one outcome from YES = active, NO = inactive

Example cases with answers are listed next.
Compound: CC(Sc1nnc(-c2ccccc2F)n1C1CC1)C(N)=O (stereo not drawn)
Assay system: Histone-lysine N-methyltransferase EHMT2 (Homo sapiens) (UniProt Q96KQ7)
Label: NO

Compound: CCCCOc1ccc(C(=O)N2CC(=O)Nc3ccc(Br)cc3C2c2ccc(F)cc2)cc1 (stereo not drawn)
Assay system: Histone-lysine N-methyltransferase EHMT2 (Homo sapiens) (UniProt Q96KQ7)
Label: NO

Compound: Cc1cc(=O)[nH]c(SCc2cc(Cl)ccc2OC(F)F)n1
Assay system: Histone-lysine N-methyltransferase EHMT2 (Homo sapiens) (UniProt Q96KQ7)
Label: NO

Compound: COC(=O)CNc1nc(Cl)nc(N2CCC(C)CC2)n1
Assay system: Histone-lysine N-methyltransferase EHMT2 (Homo sapiens) (UniProt Q96KQ7)
Label: YES

Compound: COc1ccc(N2CCN(c3ccc([N+](=O)[O-])nc3)CC2)cc1
Assay system: Histone-lysine N-methyltransferase EHMT2 (Homo sapiens) (UniProt Q96KQ7)
Label: NO

Compound: Oc1ccccc1N1CCN(C(=S)NCc2ccccc2)CC1
Assay system: Histone-lysine N-methyltransferase EHMT2 (Homo sapiens) (UniProt Q96KQ7)
Label: YES

Compound: O=C(COC(=O)c1ccccc1C(=O)N1CCN(c2ccccc2)CC1)NCc1ccccc1
Assay system: Histone-lysine N-methyltransferase EHMT2 (Homo sapiens) (UniProt Q96KQ7)
Label: NO

Compound: CN(Cc1ccccc1)C(=O)CSc1nc2ccccc2[nH]1
Assay system: Histone-lysine N-methyltransferase EHMT2 (Homo sapiens) (UniProt Q96KQ7)
Label: NO

# input What was the test verdict on "Cc1[nH]c2ccccc2c1/C=N\NC(=O)Cn1nnc(-c2ccccc2)n1" ?
# output NO

# input Write down the call the test reported for this compound. Item: "COc1ccccc1CCNC(=O)c1cccn1-c1nnc(N2CCCCC2)s1"
# output NO

# input Which outcome was entered for the compound "CCOc1ccc(NC(=O)c2cc(S(=O)(=O)N3CCCC3)c[nH]2)cc1" in this test?
# output NO

# input Can you look up the reported call for "CC(=O)c1c(C)n(S(=O)(=O)c2ccc(Cl)cc2)c2ccc(NS(=O)(=O)c3ccc(Cl)cc3)cc12" for me?
# output NO

# input Fill in: this test's call for "O=C(Nc1ccc(N2CCCCC2)cc1)c1cc(S(=O)(=O)N2CCOCC2)ccc1F" is ___
# output YES

# input Which outcome was assigned to "COC(=O)c1ccc(CSc2nncn2N)cc1" in this test?
# output NO

# input Lab log entry: "COCCNC(=S)N/N=C/c1c(C)[nH]c2ccccc12" — outcome as called in the assay?
# output NO

# input Could you please tell me the result logged for COc1ccc(C2NC(=O)N(C)C(C)=C2[N+](=O)[O-])cc1 (stereo not drawn) in this assay?
# output NO

# input Outcome? "Oc1ccc(N2CCN(C(=S)NCc3ccccc3)CC2)cc1"
# output YES

# input Short answer needed: outcome of this test for "CN(C)S(=O)(=O)N1CCN(c2ccc([N+](=O)[O-])cc2)CC1" ?
# output NO

# input Name the outcome recorded for "CN=c1scc(-c2cc(OC)ccc2OC)n1/N=C/c1c(C)[nH]c2ccccc12" in the assay.
# output YES

# input State the result this test recorded for "O=[N+]([O-])c1ccc(N2CCN(c3ccc(O)cc3)CC2)c(Cl)c1" .
# output YES

# input Look up the recorded call for "CCOC(=O)C1CCN(Cc2ccc(-c3ccccc3)cc2)CC1" in this test.
# output YES

# input // return assay outcome for "CC(=O)Nc1c(C)nn(-c2ccccc2)c1N1CCC(C(=O)Nc2cc(Cl)ccc2C)CC1"
# output NO

# input Could you check what this test reported for "O=C(NNS(=O)(=O)c1ccc(F)cc1)c1cnccn1" ?
# output YES
